These entries and their values trace back to patent US10478425B2.

Measured Emax, listed per entry for reference.
ASSAYED TARGET: Human AMPK α2β2γ1 (Homo sapiens, UniProt O43741+P54646)
Construct: The full length cDNAs of human AMPK β2 (NM_005399.3) and human AMPK α2 (NM_006252.3); The full length cDNAs of human AMPK β2 (NM_005399.3); the full length cDNA of human AMPK γ1 (NM_002733.3) had been inserted into pET28b(+); 6×His (N); made in house; host or cells: Escherichia coli BL21 CodonPlus (DE3)-RIL
Sequence (P54646 whole entry): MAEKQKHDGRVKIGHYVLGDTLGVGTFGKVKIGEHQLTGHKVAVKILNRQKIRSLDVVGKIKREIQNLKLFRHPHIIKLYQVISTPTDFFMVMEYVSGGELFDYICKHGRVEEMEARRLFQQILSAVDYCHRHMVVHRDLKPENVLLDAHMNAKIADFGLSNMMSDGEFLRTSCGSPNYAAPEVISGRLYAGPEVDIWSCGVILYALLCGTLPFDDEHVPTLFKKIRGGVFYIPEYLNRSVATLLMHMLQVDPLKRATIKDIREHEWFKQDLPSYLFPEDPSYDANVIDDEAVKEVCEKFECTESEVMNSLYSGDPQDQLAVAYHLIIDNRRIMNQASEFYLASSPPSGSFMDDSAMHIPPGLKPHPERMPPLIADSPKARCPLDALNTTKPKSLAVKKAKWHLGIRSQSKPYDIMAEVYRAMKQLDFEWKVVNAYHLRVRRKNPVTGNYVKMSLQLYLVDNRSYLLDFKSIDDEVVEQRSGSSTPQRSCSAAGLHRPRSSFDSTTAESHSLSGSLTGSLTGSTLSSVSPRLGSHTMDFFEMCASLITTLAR
Sequence (O43741 whole entry): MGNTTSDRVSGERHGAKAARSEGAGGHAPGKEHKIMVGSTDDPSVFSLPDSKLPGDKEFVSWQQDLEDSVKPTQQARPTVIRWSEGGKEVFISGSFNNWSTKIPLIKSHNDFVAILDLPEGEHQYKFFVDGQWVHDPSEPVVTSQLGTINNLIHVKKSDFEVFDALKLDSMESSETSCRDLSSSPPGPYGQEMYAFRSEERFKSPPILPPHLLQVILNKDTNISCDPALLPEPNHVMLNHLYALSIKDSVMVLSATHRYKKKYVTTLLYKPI
Sequence (P54619 whole entry partner): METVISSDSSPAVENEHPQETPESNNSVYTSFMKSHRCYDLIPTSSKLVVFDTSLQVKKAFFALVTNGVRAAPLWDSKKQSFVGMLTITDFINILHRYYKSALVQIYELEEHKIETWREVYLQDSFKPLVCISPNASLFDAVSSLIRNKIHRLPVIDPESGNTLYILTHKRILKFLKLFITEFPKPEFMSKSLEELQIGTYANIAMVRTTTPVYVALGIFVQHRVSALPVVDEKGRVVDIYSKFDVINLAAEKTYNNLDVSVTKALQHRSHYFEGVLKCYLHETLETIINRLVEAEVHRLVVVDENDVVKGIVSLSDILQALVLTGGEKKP
PROTOCOL DESCRIPTION: Test Example 2: activation of phosphorylated human AMPK α2β2γ1 (mobility-shift kinase assay, FL-Peptide 7)
Assay type: biochemical
PARTICULARS: maximum rate of increase in activity within the measurement range, control = 100%; read-out: Emax
From the text: The full length cDNAs of human AMPK β2 (NM_005399.3) and human AMPK α2 (NM_006252.3) were inserted into the MCS1 and MCS2 of the pETDuet-1 vector to prepare a human AMPK β2 and human AMPK α2 (6×His tag at the 5′ terminus) expressing plasmid. […] To detect phosphorylated fluorescent substrates, the reaction mixture was applied to a measuring device, LabChip EZ Reader II manufactured by Caliper Life Science, Inc., for detecting fluorescence by using differences in mobility due to differences in charge. […]

| SUBSTANCE SMILES | Emax |
| --- | --- |
| CS(C)(=O)=Nc1ccc(-c2ccc(-c3nc4cc(O[C@@H]5CO[C@H](CO)[C@H]5O)[nH]c4cc3F)cc2)cc1 | 224% |
| COCC(=O)Nc1ccc(-c2ccc(-c3nc4cc(O[C@@H]5CO[C@H](CO)C5)[nH]c4cc3F)cc2)cc1 | 656% |
| COc1ccc(-c2ccc(-c3nc4cc(O[C@@H]5CO[C@H]6[C@@H]5OC[C@H]6O)[nH]c4cc3F)cc2)cc1 | 364% |

---

ASSAYED TARGET: Human AMPK α2β2γ1 (Homo sapiens, UniProt O43741+P54646)
Construct: The full length cDNAs of human AMPK β2 (NM_005399.3) and human AMPK α2 (NM_006252.3); The full length cDNAs of human AMPK β2 (NM_005399.3); the full length cDNA of human AMPK γ1 (NM_002733.3) had been inserted into pET28b(+); 6×His (N); made in house; host or cells: Escherichia coli BL21 CodonPlus (DE3)-RIL
PROTOCOL DESCRIPTION: Test Example 2: activation of phosphorylated human AMPK α2β2γ1 (mobility-shift kinase assay, FL-Peptide 7)
Assay type: biochemical
PARTICULARS: compound concentration showing 150% relative to the control (100%); human AMPK α2β2γ1 phosphorylated with CaMKK2
Measured EC150, listed per entry for reference.
VALUE TYPE: EC150

| COMPOUND | VALUE TYPE | EXPERIMENTAL RESULT |
| --- | --- | --- |
| COCCOC1CCN(c2ccc(-c3nc4cc(O[C@@H]5CO[C@H]6[C@@H]5OC[C@H]6O)[nH]c4cc3F)cc2)CC1 | EC150 | 20 nM |
| CCOC(=O)NC1CCN(c2ccc(-c3nc4cc(O[C@@H]5CO[C@H]6[C@@H]5OC[C@H]6O)[nH]c4cc3F)cc2)CC1 | EC150 | 13 nM |
| OC[C@H]1OC[C@@H](Oc2cc3nc(-c4ccc(C5(CO)CC5)cc4)c(F)cc3[nH]2)C1(F)F | EC150 | 1.9 nM |
| CS(C)(=O)=Nc1ccc(-c2ccc(-c3nc4cc(O[C@H]5CO[C@H](CO)[C@@H](O)C5)[nH]c4cc3F)cc2)cc1 | EC150 | 6.2 nM |
| CC(C)(O)/C=C/c1ccc(-c2nc3cc(O[C@@H]4CO[C@H]5[C@@H]4OC[C@H]5O)[nH]c3cc2F)cc1 | EC150 | 9.9 nM |
| C[S+]([O-])c1ccc(-c2ccc(-c3nc4cc(O[C@@H]5CO[C@H]6[C@@H]5OC[C@H]6O)[nH]c4cc3F)cc2)cc1 (some centres unmarked) [Compound I-1-64] | EC150 | 1.6 nM |
| O=S1(=Nc2ccc(-c3ccc(-c4nc5cc(O[C@@H]6CO[C@H]7[C@@H]6OC[C@H]7O)[nH]c5cc4F)cc3)cc2)CCOCC1 | EC150 | 5.3 nM |
| COCC[S+]([O-])c1ccc(-c2ccc(-c3nc4cc(O[C@@H]5CO[C@H]6[C@@H]5OC[C@H]6O)[nH]c4cc3F)cc2)cc1 (some centres unmarked) | EC150 | 1.1 nM |
| O=C(c1ccc(-c2ccc(-c3nc4cc(O[C@@H]5CO[C@H](CO)C5)[nH]c4cc3F)cc2)cc1)N1CCOCC1 | EC150 | 0.78 nM |
| C[S@@](=O)(=Nc1ccc(-c2ccc(-c3nc4cc(O[C@@H]5CO[C@H]6[C@@H]5OC[C@H]6O)[nH]c4cc3F)cc2)cc1)c1ccccc1 | EC150 | 5.8 nM |
| CN1CCC(Oc2ccc(-c3ccc(-c4nc5cc(O[C@@H]6CO[C@H]7[C@@H]6OC[C@H]7O)[nH]c5cc4F)cc3)cc2)C1=O (some centres unmarked) | EC150 | 1.3 nM |
| CS(C)(=O)=Nc1ccc(-c2ccc(-c3nc4cc(O[C@@H]5CO[C@H](CO)[C@@H]5O)[nH]c4cc3F)cc2)cc1 | EC150 | 67 nM |
| O[C@@H]1CO[C@H]2[C@@H]1OC[C@H]2Oc1cc2nc(-c3ccc(-c4ccc(Oc5ccncc5)cc4)cc3)c(F)cc2[nH]1 | EC150 | 5 nM |
| O[C@@H]1CO[C@H]2[C@@H]1OC[C@H]2Oc1cc2nc(-c3ccc(-c4ccc(OCC5CCCO5)cc4)cc3)c(F)cc2[nH]1 (some centres unmarked) | EC150 | 20 nM |
| CC(=O)NC1CC=C(c2ccc(-c3nc4cc(O[C@@H]5CO[C@H](CO)C5)[nH]c4cc3F)cc2)CC1 (some centres unmarked) | EC150 | 0.87 nM |
| COCCS(=O)(=O)c1ccc(-c2ccc(-c3nc4cc(O[C@@H]5CO[C@H]6[C@@H]5OC[C@H]6O)[nH]c4cc3F)cc2)cc1 | EC150 | 2.6 nM |
| O[C@@H]1CO[C@H]2[C@@H]1OC[C@H]2Oc1cc2nc(-c3ccc(C4=CCN(C5=NCCO5)CC4)cc3)c(F)cc2[nH]1 | EC150 | 12 nM |
| OCCOc1ccc(-c2ccc(-c3nc4cc(O[C@@H]5CO[C@H]6[C@@H]5OC[C@H]6O)[nH]c4cc3F)cc2)cc1 | EC150 | 3 nM |
| COCCCc1ccc(-c2ccc(-c3nc4cc(O[C@@H]5CO[C@H]6[C@@H]5OC[C@H]6O)[nH]c4cc3F)cc2)cc1 | EC150 | 48 nM |
| CNC(=O)OC1CCN(c2ccc(-c3nc4cc(O[C@@H]5CO[C@H]6[C@@H]5OC[C@H]6O)[nH]c4cc3F)cc2)CC1 | EC150 | 19 nM |
| CS(C)(=O)=Nc1ccc(-c2ccc(-c3nc4cc(O[C@H]5CCOC5)[nH]c4cc3F)cc2)cc1 | EC150 | 6.6 nM |
| COCCOc1ccc(-c2ccc(-c3nc4cc(O[C@@H]5CO[C@H]6[C@@H]5OC[C@H]6O)[nH]c4cc3F)cc2)cc1F | EC150 | 40 nM |
| COCCOc1ccc(-c2ccc(-c3nc4cc(O[C@@H]5CO[C@H]6[C@@H]5OC[C@H]6O)[nH]c4cc3F)cc2)nc1 | EC150 | 7.2 nM |

---

Measured Emax, listed per entry for reference.
ASSAYED TARGET: Human AMPK α2β2γ1 (Homo sapiens, UniProt O43741+P54646)
Construct: The full length cDNAs of human AMPK β2 (NM_005399.3) and human AMPK α2 (NM_006252.3); The full length cDNAs of human AMPK β2 (NM_005399.3); the full length cDNA of human AMPK γ1 (NM_002733.3) had been inserted into pET28b(+); 6×His (N); made in house; host or cells: Escherichia coli BL21 CodonPlus (DE3)-RIL
PROTOCOL DESCRIPTION: Test Example 2: activation of phosphorylated human AMPK α2β2γ1 (mobility-shift kinase assay, FL-Peptide 7)
Assay type: biochemical
PARTICULARS: maximum rate of increase in activity within the measurement range, control = 100%; read-out: Emax

| SUBSTANCE SMILES | VALUE UNITS | Emax |
| --- | --- | --- |
| O[C@@H]1CO[C@H]2[C@@H]1OC[C@H]2Oc1cc2nc(-c3ccc(C4=CCN(C5=NCCO5)CC4)cc3)c(F)cc2[nH]1 | % | 486 |
| O[C@@H]1CO[C@H]2[C@@H]1OC[C@H]2Oc1cc2nc(-c3ccc(-c4ccc(O[C@@H]5CCOC5)cc4)cc3)c(F)cc2[nH]1 | % | 514 |
| O=C1NCCN1c1ccc(-c2ccc(-c3nc4cc(O[C@@H]5CO[C@H]6[C@@H]5OC[C@H]6O)[nH]c4cc3F)cc2)cc1 | % | 494 |
| CS(=O)(=O)N[C@H]1CC[C@H](c2ccc(-c3nc4cc(O[C@@H]5CO[C@H]6[C@@H]5OC[C@H]6O)[nH]c4cc3F)cc2)CC1 | % | 482 |
| COCCCN1CCN(c2ccc(-c3nc4cc(O[C@@H]5CO[C@H]6[C@@H]5OC[C@H]6O)[nH]c4cc3F)cc2)CC1 | % | 514 |
| OC[C@H]1OC[C@@H](Oc2cc3nc(-c4ccc(C5(CO)CC5)cc4)c(F)cc3[nH]2)C1(F)F | % | 406 |
| CP(C)(=O)c1ccc(-c2ccc(-c3nc4cc(O[C@@H]5CO[C@H](CO)C5(F)F)[nH]c4cc3F)cc2)cc1 | % | 556 |
| CS(=O)(=O)Nc1ccc(-c2ccc(-c3nc4cc(O[C@@H]5CO[C@H]6[C@@H]5OC[C@H]6O)[nH]c4cc3F)cc2)cc1 | % | 533 |
| CC(C)(C)P(=O)(c1ccc(-c2ccc(-c3nc4cc(O[C@@H]5CO[C@H]6[C@@H]5OC[C@H]6O)[nH]c4cc3F)cc2)cc1)C(C)(C)C | % | 555 |
| CS(C)(=O)=Nc1ccc(-c2ccc(-c3nc4cc(O[C@@H]5CO[C@H](CO)C5(F)F)[nH]c4cc3F)cc2)cc1 | % | 514 |
| CC(C)(O)COc1ccc(-c2ccc(-c3nc4cc(O[C@@H]5CO[C@H]6[C@@H]5OC[C@H]6O)[nH]c4cc3F)cc2)cc1 | % | 652 |
| COCCNc1ccc(-c2ccc(-c3nc4cc(O[C@@H]5CO[C@H]6[C@@H]5OC[C@H]6O)[nH]c4cc3F)cc2)cc1 | % | 478 |
